# assayed_system: D(2) dopamine receptor (Homo sapiens)
# Sequence (P14416 whole entry): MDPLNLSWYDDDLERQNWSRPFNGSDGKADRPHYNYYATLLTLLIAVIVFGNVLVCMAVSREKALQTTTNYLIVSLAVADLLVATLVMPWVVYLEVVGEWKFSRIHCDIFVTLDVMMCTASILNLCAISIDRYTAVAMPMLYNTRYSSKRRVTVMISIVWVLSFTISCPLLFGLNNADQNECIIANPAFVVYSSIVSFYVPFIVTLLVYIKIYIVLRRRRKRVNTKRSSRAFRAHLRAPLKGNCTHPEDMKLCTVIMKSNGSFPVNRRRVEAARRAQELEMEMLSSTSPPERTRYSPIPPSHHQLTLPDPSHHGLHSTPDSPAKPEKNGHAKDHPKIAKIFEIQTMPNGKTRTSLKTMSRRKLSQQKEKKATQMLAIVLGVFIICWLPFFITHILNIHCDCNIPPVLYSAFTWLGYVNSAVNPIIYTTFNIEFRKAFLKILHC
# assay_summary: Antagonist activity at D2 receptor (unknown origin) preincubated for 60 mins followed by addition of Eu-cAMP and measured after 60 mins by plate reader method
pIC50: −log10 of the molar value.
assay_endpoint: pIC50

{"test_smiles": "Nc1ccc2c(c1)N(CCCCN1CCN(c3cccc4sccc34)CC1)S(=O)(=O)CC2", "assayed_system": "D(2) dopamine receptor (Homo sapiens)", "recorded_number": 7.17}
{"test_smiles": "CN1CC(=O)N(CCCCN2CCN(c3cccc4sccc34)CC2)c2ccccc2C1=O", "assayed_system": "D(2) dopamine receptor (Homo sapiens)", "recorded_number": 6.91}
{"test_smiles": "O=C1NCC(=O)N(CCCCN2CCN(c3cccc4sccc34)CC2)c2cc(F)ccc21", "assayed_system": "D(2) dopamine receptor (Homo sapiens)", "recorded_number": 7.46}
{"test_smiles": "O=S1(=O)CCc2ccc(O)cc2N1CCCCN1CCN(c2cccc3sccc23)CC1", "assayed_system": "D(2) dopamine receptor (Homo sapiens)", "recorded_number": 7.70}
